Listing of entries alongside the reported time detected in serum (FBMN).
# test: FBMN analysis of short peptides in small intestine contents and serum after oral DHG
# condition_description: serum, time points 0.5-4 h after oral DHG
Peptide text beside a SMILES is read from it.

CC(C)[C@@H]1NC(=O)[C@@H]2CCCN2C1=O [cyclo(Pro-Val)] = 0.5 to 4 h

Field: next compound
Quick check: time detected in serum (FBMN) of CC(C)CC(NC(=O)C(N)Cc1ccccc1)C(=O)O (stereo not drawn) [Phe-Leu] (H-Phe-Leu-OH; configuration not given here) ? ≥ 4 h

====

# test: FBMN analysis of short peptides in small intestine contents and serum after oral DHG
# condition_description: small intestine contents, 30 min after oral DHG, C57 mice; FBMN feature intensity, peptides smaller than 690 Da
Peptide text beside a SMILES is read from it.
Listing of entries alongside the reported Peptide signal (feature intensity) in the small intestine, 30 min.
Write no unit; give the number alone.

Quick check: Peptide signal (feature intensity) in the small intestine, 30 min of CSCCC(N)C(=O)NC(CC(C)C)C(=O)O (stereo not drawn) [Met-Leu] (H-Met-Leu-OH; configuration not given here) ? 0.00E+00

Quick check: Peptide signal (feature intensity) in the small intestine, 30 min of CC(C)CC1NC(=O)C2CC(O)CN2C1=O (centres unmarked) ? 9.23E+06

Quick check: Peptide signal (feature intensity) in the small intestine, 30 min of CC[C@H](C)[C@H](N)C(=O)NCC(=O)N[C@H](C(=O)O)[C@@H](C)CC [Ile-Gly-Ile] (H-Ile-Gly-Ile-OH) ? 0.00E+00

Quick check: Peptide signal (feature intensity) in the small intestine, 30 min of "N[C@@H](Cc1cnc[nH]1)C(=O)N1CCC[C@H]1C(=O)O" ? 4.26E+07

Quick check: Peptide signal (feature intensity) in the small intestine, 30 min of "CC(C)[C@@H]1NC(=O)[C@@H]2CCCN2C1=O" ? 3.95E+05

====

Listing of entries alongside the reported Peptide signal (feature intensity) in the small intestine, 240 min.
# test: FBMN analysis of short peptides in small intestine contents and serum after oral DHG
# condition_description: small intestine contents, 240 min after oral DHG, C57 mice; FBMN feature intensity, peptides smaller than 690 Da
Peptide text beside a SMILES is read from it.
Write no unit; give the number alone.

CSCCC(N)C(=O)NC(C(=O)O)C(C)C (stereo not drawn) [Met-Val] (H-Met-Val-OH; configuration not given here) = 1.03E+06
CC(C)[C@H](N)C(=O)N[C@@H](Cc1c[nH]c2ccccc12)C(=O)O [Val-Trp] (H-Val-Trp-OH) = 1.64E+06
CC(C)C[C@H](N)C(=O)N[C@@H](C)C(=O)O [Leu-ala] (H-Leu-Ala-OH) = 0.00E+00

Quick check: Peptide signal (feature intensity) in the small intestine, 240 min of CC[C@H](C)[C@H](NC(=O)[C@@H](N)C(C)C)C(=O)N[C@@H](CCCCN)C(=O)O [Val-Ile-Lys] (H-Val-Ile-Lys-OH) ? 4.35E+06

Quick check: Peptide signal (feature intensity) in the small intestine, 240 min of CSCCC(N)C(=O)NC(CC(C)C)C(=O)O (stereo not drawn) [Met-Leu] (H-Met-Leu-OH; configuration not given here) ? 3.59E+05

Quick check: Peptide signal (feature intensity) in the small intestine, 240 min of CC[C@H](C)[C@H](NC(=O)[C@@H](N)Cc1cnc[nH]1)C(=O)O [His-Ile] (H-His-Ile-OH) ? 2.33E+07

Quick check: Peptide signal (feature intensity) in the small intestine, 240 min of CC(C)CC(NC(=O)C1CCCN1)C(=O)O (stereo not drawn) [Pro-Leu] (H-Pro-Leu-OH; configuration not given here) ? 0.00E+00

Quick check: Peptide signal (feature intensity) in the small intestine, 240 min of CC[C@H](C)[C@H](N)C(=O)N[C@@H](CC(C)C)C(=O)O [Ile-Leu] (H-Ile-Leu-OH) ? 0.00E+00

Quick check: Peptide signal (feature intensity) in the small intestine, 240 min of CC(C)[C@H](N)C(=O)N[C@@H](Cc1ccccc1)C(=O)O [Val-Phe] (H-Val-Phe-OH) ? 0.00E+00

Quick check: Peptide signal (feature intensity) in the small intestine, 240 min of CC[C@H](C)[C@H](N)C(=O)N[C@H](C(=O)N[C@@H](CCCCN)C(=O)O)[C@@H](C)CC [Ile-Ile-Lys] (H-Ile-Ile-Lys-OH) ? 0.00E+00

====

# test: Serum pharmacokinetics of CDPs after oral administration of DHG (targeted LC-MS, noncompartmental analysis)
# condition_description: serum, mice, oral DHG 1000 mg/kg
Listing of entries alongside the reported AUC0–24h.
Provide only the numeric value, understood in ng·h/mL.

Solved entries:
CC[C@H](C)[C@@H]1NC(=O)[C@@H]2CCCN2C1=O = 71.9933
O=C1[C@@H]2C[C@@H](O)CN2C(=O)[C@@H]2CCCN12 = 2126.6252
O=C1[C@@H]2CCCN2C(=O)[C@@H]2CCCN12 = 487.9963

Quick check: AUC0–24h of "O=C1N[C@@H](Cc2cnc[nH]2)C(=O)N2CCC[C@@H]12" ? 13.9981

Quick check: AUC0–24h of CC1NC(=O)C2CC(O)CN2C1=O (centres unmarked) ? 2561.8131

====

# test: FBMN analysis of short peptides in small intestine contents and serum after oral DHG
# condition_description: small intestine contents, 120 min after oral DHG, C57 mice; FBMN feature intensity, peptides smaller than 690 Da
Square brackets hold non-standard residues; d marks the D form. Peptide text beside a SMILES is read from it. pGlu = O=C1CC[CH](C(=O)O)N1
Listing of entries alongside the reported Peptide signal (feature intensity) in the small intestine, 120 min.
Write no unit; give the number alone.

Solved entries:
CC(C)CC(NC(=O)C(N)Cc1ccccc1)C(=O)O (stereo not drawn) [Phe-Leu] (H-Phe-Leu-OH; configuration not given here) = 0.00E+00
CC(C)CC1NC(=O)C2CC(O)CN2C1=O (centres unmarked) = 5.32E+06
CC[C@H](C)[C@H](N)C(=O)N[C@@H](CC(N)=O)C(=O)O [Ile-Asn] (H-Ile-Asn-OH) = 0.00E+00
O=C(O)C(Cc1ccccc1)NC(=O)C1CCCN1 (stereo not drawn) [Pro-Phe] (H-Pro-Phe-OH; configuration not given here) = 1.22E+06
N[C@@H](CCC(=O)O)C(=O)N[C@@H](Cc1ccccc1)C(=O)O = 0.00E+00
CC(C)CC1NC(=O)C(Cc2ccccc2)NC1=O (centres unmarked) = 8.22E+05
CSCCC(NC(=O)C1CCC(=O)N1)C(=O)O (centres unmarked) [PyroGlu-Met] ([pGlu]-Met-OH; configuration not given here) = 0.00E+00
CSCC[C@H](N)C(=O)O = 1.12E+05
N[C@@H](Cc1c[nH]c2ccccc12)C(=O)NCC(=O)O [Trp-gly] (H-Trp-Gly-OH) = 0.00E+00
CC(C)C[C@H](N)C(=O)N[C@@H](C)C(=O)O [Leu-ala] (H-Leu-Ala-OH) = 0.00E+00

Quick check: Peptide signal (feature intensity) in the small intestine, 120 min of N[C@@H](CCC(=O)O)C(=O)N[C@@H](Cc1ccc(O)cc1)C(=O)O [Glu-Tyr] (H-Glu-Tyr-OH) ? 0.00E+00

Quick check: Peptide signal (feature intensity) in the small intestine, 120 min of "NC(=O)CC[C@H](NC(=O)[C@@H](N)Cc1ccccc1)C(=O)O" ? 3.17E+05

Quick check: Peptide signal (feature intensity) in the small intestine, 120 min of CC[C@H](C)[C@H](NC(=O)CN)C(=O)O [Gly-Ile] (H-Gly-Ile-OH) ? 0.00E+00

Quick check: Peptide signal (feature intensity) in the small intestine, 120 min of CC(C)C[C@H](N)C(=O)N[C@@H](CCC(=O)O)C(=O)O [Leu-Glu] (H-Leu-Glu-OH) ? 0.00E+00

Quick check: Peptide signal (feature intensity) in the small intestine, 120 min of "CSCC[C@H](NC(=O)CN)C(=O)O" ? 0.00E+00

Quick check: Peptide signal (feature intensity) in the small intestine, 120 min of "N[C@@H](Cc1cnc[nH]1)C(=O)N1CCC[C@H]1C(=O)O" ? 0.00E+00

Quick check: Peptide signal (feature intensity) in the small intestine, 120 min of CC[C@H](C)[C@H](NC(=O)[C@@H](N)C(C)C)C(=O)N[C@@H](CCCCN)C(=O)O [Val-Ile-Lys] (H-Val-Ile-Lys-OH) ? 0.00E+00

====

# test: FBMN analysis of short peptides in small intestine contents and serum after oral DHG
# condition_description: small intestine contents, 60 min after oral DHG, C57 mice; FBMN feature intensity, peptides smaller than 690 Da
Peptide text beside a SMILES is read from it.
Listing of entries alongside the reported Peptide signal (feature intensity) in the small intestine, 60 min.
Write no unit; give the number alone.

Solved entries:
CC[C@H](C)[C@H](NC(=O)[C@@H](N)Cc1cnc[nH]1)C(=O)O [His-Ile] (H-His-Ile-OH) = 0.00E+00
CC[C@H](C)[C@H](NC(=O)[C@@H](N)C(C)C)C(=O)N[C@@H](CCCCN)C(=O)O [Val-Ile-Lys] (H-Val-Ile-Lys-OH) = 2.02E+05
CC(C)[C@H](N)C(=O)N[C@H](C(=O)O)C(C)C [Val-Val] (H-Val-Val-OH) = 1.24E+07
CC[C@H](C)[C@H](NC(=O)[C@@H](N)CC(N)=O)C(=O)O [Asn-Ile] (H-Asn-Ile-OH) = 1.54E+06
N[C@@H](CC(=O)O)C(=O)N[C@@H](Cc1ccccc1)C(=O)O [Asp-Phe] (H-Asp-Phe-OH) = 6.08E+07
CC[C@H](C)[C@H](N)C(=O)N[C@@H](CCC(=O)O)C(=O)N[C@@H](CCCCN)C(=O)O [Ile-Glu-Lys] (H-Ile-Glu-Lys-OH) = 6.83E+05
CC[C@H](C)[C@H](N)C(=O)NCC(=O)N[C@H](C(=O)O)[C@@H](C)CC [Ile-Gly-Ile] (H-Ile-Gly-Ile-OH) = 2.90E+06
NCC(=O)N[C@@H](Cc1ccc(O)cc1)C(=O)O [Gly-Tyr] (H-Gly-Tyr-OH) = 5.39E+06
N[C@@H](CCC(=O)O)C(=O)N[C@@H](Cc1ccc(O)cc1)C(=O)O [Glu-Tyr] (H-Glu-Tyr-OH) = 4.16E+05
NC(Cc1ccc(O)cc1)C(=O)NC(Cc1ccc(O)cc1)C(=O)O (stereo not drawn) [Tyr-Tyr] (H-Tyr-Tyr-OH; configuration not given here) = 1.86E+06

Field: next compound
Quick check: Peptide signal (feature intensity) in the small intestine, 60 min of CC(C)[C@H](N)C(=O)N[C@@H](Cc1c[nH]c2ccccc12)C(=O)O [Val-Trp] (H-Val-Trp-OH) ? 4.22E+05
